Please provide measured growth inhibition for the entries that follow.
assay: NCI Yeast Anticancer Drug Screen. Data for the cln2 rad14 strain (AID 165);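 note: 0% = growth equal to vehicle treated cultures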; details: S. cerevisiae cln2 rad14 strain, at 5.0 µM (retest, dose inferred, filed as 0.5), stronger effect = higher value
About 79,000 compounds went through this panel and 15% of them were active in at least one assay; those are over-represented in the sample as a whole.
Give bare numbers, in %.

Solved entries:
Request: Which value of growth inhibition has been reported for COC1OC2=CCC3C(=O)NC(=O)C3C2[C@H](OCc2ccccc2)C1OCc1ccccc1 (stereo not given in full) in the records?
Response: 0

Request: Would you kindly repeat that for Cc1cc(NC(=S)SCc2ccc3c(c2)OCO3)ccc1Cl ?
Response: 38

Request: Would you kindly repeat that for O=c1[nH]c2c([N+](=O)[O-])cc(Cl)cc2nc1/C=C(\O)c1ccc(F)cc1 ?
Response: 5

Request: Would you kindly repeat that for CCC[CH2][Sn]1([CH2]CCC)[O]CC([CH2][Sn]([c]2ccccc2)([c]2ccccc2)[c]2ccccc2)[O]1 (stereo not given) ?
Response: 99

More entries:
Request: Which value of growth inhibition has been reported for Cc1ccc(C(=O)OCC(C)C)cc1N=NN(C)C in the records?
Response: 7

---

experiment: NCI Yeast Anticancer Drug Screen. Data for the rad50 strain (AID 155);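 note: 0% = growth of vehicle-only cultures of the same strain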; conditions: S. cerevisiae rad50 strain growth inhibition; at 50.0 µM (retest, dose inferred, filed as 5.0)
Compounds without any hit were thinned out: in the full panel of roughly 79,000, 15% have a hit. Active and inactive are the calls of the source. Rule as the data show it: active = growth inhibition above about 70%; inactive = the rest.
Entry note: the call must match one of active, inactive

Take a look at these entries with their results.
Request: Query: recorded result category for COc1ccc2ccccc2c1/C=C/C(=O)c1ccccc1 in this test
Response: inactive

Request: Would you kindly repeat that for CCCCCCCCCCCCCCCC(=O)NCCN(C)C ?
Response: active

Request: Would you kindly repeat that for CC(NNC(=S)N1CCCC1)c1cccnn1 (configuration not stated) ?
Response: active

Request: Would you kindly repeat that for COc1cc2c(Cc3ccc(OC)c(OC)c3)[n+](Cc3ccccc3)ccc2cc1NCc1ccccc1 ?
Response: active

Request: Would you kindly repeat that for COC(=O)C(C#N)C(c1ccccc1)c1c[nH]c2ccccc12 (configuration not stated) ?
Response: active

More entries:
Request: Query: recorded result category for CN1CC(CN2CCCCC2)C(O)C(c2ccccc2)C1 (configuration not stated) in this test
Response: inactive

Request: Would you kindly repeat that for CN(C)CCN(C)CCC(=O)/C=C/c1ccccc1 ?
Response: active

---

experiment: NCI Yeast Anticancer Drug Screen. Data for the bub3 strain (AID 167); settings: S. cerevisiae bub3 mutant strain, at 50.0 µM
Compounds without any hit were thinned out: in the full panel of roughly 79,000, 15% have a hit. Active and inactive are the calls of the source. Cut-off read from the data, not from the text of the source: active = growth inhibition above about 70%; inactive = the rest.
Entry note: the call must match one of active, inactive

Request: Query: recorded result category for O=C(CBr)Nc1ccc(Cc2ccc(NC(=O)CBr)cc2)cc1 in this test
Response: active

Request: Would you kindly repeat that for O=C(Nc1cccc(NC(=O)c2cc(=O)c3ccccc3o2)n1)c1cc(=O)c2ccccc2o1 ?
Response: inactive

Request: Would you kindly repeat that for CCCCCCCCC1(OCCCS(=O)(=O)O)COc2ccccc2OCCOCCOc2ccccc2OC1 ?
Response: active

Request: Would you kindly repeat that for O=C1OC(c2ccc3c(c2)OCO3)Sc2ccccc21 (stereo not given) ?
Response: inactive

More entries:
Request: Query: recorded result category for CC(=O)[O-].[Mn+3].[O-]c1ccc(Cl)cc1C=NCCN=Cc1cc(Cl)ccc1[O-] in this test
Response: active

---

test: NCI Yeast Anticancer Drug Screen. Data for the rad50 strain (AID 155);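 note: 0% = growth of vehicle-only cultures of the same strain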; conditions: S. cerevisiae rad50 strain growth inhibition; at 50.0 µM (retest, dose inferred, filed as 5.0); stronger effect = higher value
The panel holds about 79,000 compounds, 15% with a hit somewhere; the sample as a whole holds those more often. Where a SMILES comes first, the peptide text is derived from it. The star is where a group is joined. X7 = Clc1c(Cl)c(Cl)c(O*)c(Cl)c1Cl; Boc = CC(C)(C)OC(=O)*; OBn = c1ccc(CO*)cc1; Bn = c1ccc(C*)cc1
ASSAY READOUT: growth inhibition (%)
One number for each entry, in %.

Request: Which value of growth inhibition has been reported for CCCc1cc2c(cc1COc1ccccc1C(=O)O)OCO2 in the records?
Response: 49

Request: Would you kindly repeat that for CCOC(=O)CC(N)CC(=O)OCC ?
Response: -157

Request: Would you kindly repeat that for COc1ccc2c(c1)c1c(C)c3cnccc3c(C)c1n2CCCN ?
Response: 44

Request: Would you kindly repeat that for O=C1c2ccccc2-c2ccc(N3C(=O)C4CCCCC4C3=O)cc21 (stereo unspecified) ?
Response: 95

Request: Would you kindly repeat that for COc1cccc2c1OC(c1cccc3ccccc13)C([N+](=O)[O-])=C2 (stereo unspecified) ?
Response: 75

Request: Would you kindly repeat that for CC(=O)N(/C=C\c1sc2ccccc2[n+]1C)c1ccccc1 ?
Response: 96

Request: Would you kindly repeat that for COc1ccc(C2=Nc3cc(C)c(C)cc3NC(c3ccccc3)C2)cc1 (stereo unspecified) ?
Response: 11

Request: Would you kindly repeat that for CC1CCC(=NNC(N)=O)CC1 (stereo unspecified) ?
Response: -6

Hi there! I need growth inhibition for each item below, if you can.
1. CC12C=CC(=O)C=C1CCC1C3CCC(O)(C(=O)CO)C3(C)CC(O)C12F (stereo unspecified)
2. CC1=C(C)C(=O)C2=C(OCCCO2)C1=O

Response:
63
-12

Hi there! I need growth inhibition for each item below, if you can.
1. CCOc1ccc2c(c1)n([O-])c1cc(Br)ccc1[n+]2=O
2. Cc1cc(O)c(O)cc1C/C=C/c1ccccc1
3. CN(C)Cc1cc(N=Nc2ccc(Cl)c(Cl)c2)ccc1O
4. C(=C\[P+](c1ccccc1)(c1ccccc1)c1ccccc1)/c1ccccc1
5. Cc1ccc(Nc2nc3nc[nH]c3c(=O)[nH]2)cc1CO
6. COc1cccc2c1C(=O)c1c(O)c3c(c(O)c1C2=O)C[C@@](O)(/C(C)=N\NC(N)=O)C[C@@H]3OC1CC(N)C(O)C(C)O1 (stereo partly specified)
7. COc1ccc(-c2ccccc2)cc1SCCC(=O)O
8. Nc1ncnc2nn(C3OC(CO)C(O)C3O)nc12 (stereo unspecified)

Response:
1: 93; 2: 92; 3: 46; 4: 99; 5: 13; 6: 83; 7: 15; 8: 20

Hi there! I need growth inhibition for each item below, if you can.
1. NNc1cccc(C(F)(F)F)c1
2. Cc1ccc(C2(c3ccc(F)cc3)OC(=O)c3ccccc32)c(O)c1 (stereo unspecified)
3. COc1ccc(Nc2nc3ccccc3s2)cc1

Response:
[90, 99, 15]

Hi there! I need growth inhibition for each item below, if you can.
1. COC(=O)/C(C#N)=C(/SC)N(C)C
2. Cn1c(=O)c2c(ncn2CCCCOc2ccc3c(c2)[n+]([O-])nc(N)[n+]3[O-])n(C)c1=O

Response:
7
38

Hi there! I need growth inhibition for each item below, if you can.
1. CCO/C=C1N=C(/C=C/c2ccccc2Cl)OC/1=O
2. NC(=S)C(=S)N/C=C(/c1ccc(Cl)cc1)S(=O)(=O)Cc1ccc(Cl)cc1
3. C=C(CN(C)C)C(=O)c1ccc(C)cc1C
4. O=C1C(Cl)=C(Cl)C(=O)c2cc(Cl)c(Cl)cc21
5. Fc1ccc(CSC(=S)Nc2ccc(Br)cc2)cc1
6. CCCN(CCC)Cc1cc2c(cc1O)CC[C@@H]1[C@@H]2CC[C@]2(C)C(=O)CC[C@@H]12

Response:
1: 84; 2: 98; 3: 99; 4: 99; 5: 99; 6: 87

Hi there! I need growth inhibition for each item below, if you can.
1. Cc1ccc2c(c1)C(O)(c1ccccc1)C(c1ccccc1)C(c1ccccc1)O2 (stereo unspecified)
2. O=C(/C=C/c1cccnc1)c1cc(Cl)ccc1O

Response:
1. 83
2. 61

Hi there! I need growth inhibition for each item below, if you can.
1. COc1ccc(C(=O)CC(=O)c2ccccc2)cc1
2. Cc1cc(CC(O)(C(F)(F)F)C(F)(F)F)cc(CC(O)(C(F)(F)F)C(F)(F)F)n1
3. COC(=O)CC1c2cc(OC)c3cccc(OC)c3c2CCC1(C)C(=O)OC (stereo unspecified)
4. O=C(CCCl)Nc1ccc(CCC(=O)c2ccccc2NC(=O)CCCl)cc1

Response:
99
99
89
23

Hi there! I need growth inhibition for each item below, if you can.
1. Clc1nc(Cl)c(Cl)c(-c2ccccc2)n1
2. COc1ccc(C(=O)C2=C(C)Nc3ccc(Br)cc3S2)cc1
3. CCCOC(=O)CSC#N
4. CCCCOC(=O)c1nc(N(CC2CCCCC2)C(=O)NC)sc1NC(=O)NC
5. CC(C)CC(NC(=O)C(CCC(=O)OCc1ccccc1)NC(=O)OC(C)(C)C)C(=O)NC(COCc1ccccc1)C(=O)NC(Cc1ccccc1)C(=O)Oc1c(Cl)c(Cl)c(Cl)c(Cl)c1Cl (stereo unspecified) (Boc-E(OBn)LS(Bn)F-X7; configuration not given here)
6. CCCCCC[C@@H](O)C/C=C\CCCCCCCC(=O)OCCCC

Response:
75
27
97
92
58
-7
